Target: T1, TX1BP3, O14907
T1 sequence (O14907 10-122, limits assumed, looked up): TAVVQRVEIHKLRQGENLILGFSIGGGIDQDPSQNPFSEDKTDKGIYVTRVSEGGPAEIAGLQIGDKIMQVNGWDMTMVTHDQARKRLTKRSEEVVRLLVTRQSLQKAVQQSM
Test: holdup assay
Design: key: below the threshold = too weak to quantify, mostly under pKd 3.1 to 4
Conditions: plain residues with an end cap or a label only (N-terminal biotin on a linker: ado-ado)
measurementLabel: pKd
Numbers only.

> print(dat)
                       binder  obsvalue
1  DGVNEKVSCV [HTR2A, P28223]      3.61

Each binder below has a reported value. Please supply its pKd.
1. NISYRRESAI [KCNJ4, P48050]
2. REEPDHSTEV [CCRL2, O00421]
3. GIKKITSTAL [RPS6KA3, P51812]
4. DPAESMESLV [PTPRG, P23470]
5. TRKRSGEAAV [PFKM, P08237]
6. PYPTADHMLA [JUP, P14923]
7. TGLWKHETTV [ADGRA3, Q8IWK6]

**A:**
1. 4.82
2. 3.49
3. 4.59
4. 4.03
5. 4.07
6. 4.01
7. 5.08

**Q:** Suppose we examine the binder TNSRHGETTV [FZD2, Q14332] ; what pKd value has been reported?
**A:** 3.68
